Test system: FLT4;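 also: KINOMEscan kinase panel screen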
Settings: concentration: 1 μM, replicates: in singlicate; n = 1
Label Criterion met for high-side %Inh (at or above 40%) and Criterion not met for low-side %Inh (below it).

Example results:
{"compound": "CCS(=O)(=O)c1ccc(OC)c(Nc2nccc(-c3c(-c4cccc(NC(=O)c5c(F)cccc5F)c4)nn4ncccc34)n2)c1", "assignedClass": "Criterion not met"}
{"compound": "FC(F)(F)c1ccc(/C=C/c2cncnc2Nc2ccc3[nH]c(Cc4ccccc4)nc3c2)cc1", "assignedClass": "Criterion not met"}
{"compound": "O=C(NC1CCN(c2ccnc(Nc3ccc(F)cc3)n2)C1)c1cc2ccccc2s1 (stereo not shown)", "assignedClass": "Criterion not met"}
{"compound": "Cc1ccc(F)c(C(=O)Nc2cccc(-c3nn4ccccc4c3-c3ccnc(Nc4cccc(F)c4)n3)c2)c1F", "assignedClass": "Criterion met"}
{"compound": "Cl.c1ccc(-c2ccc3c(Nc4ccc5[nH]ccc5c4)ccnc3c2)nc1", "assignedClass": "Criterion met"}

INPUT: Answer whether %Inh of CCn1c(-c2nonc2N)nc2c(C#CC(C)(C)O)nc(OC[C@H](N)c3ccccc3)cc21 is greater than or equal to 40%.
OUTPUT: Criterion not met

INPUT: What would you report for C[C@@H]1CC[C@@H](C(=O)Nc2ccccc2)CN1c1cc(-c2ccc3c(N)n[nH]c3c2)nc(N)n1 ?
OUTPUT: Criterion not met
